# test summary: qHTS assay to test for compound auto fluorescence at 460 nm (blue) in HepG2 cell free culture (AID 720685); note: % is set by controls: 0 for no effect and ±100 for the full control effect
# assay context: Cell-free culture medium, blue autofluorescence 405/460 nm; series mostly up to 91.3 µM
Calls of active or inactive are those of the source. Calls come from the whole dose curve; as a rule, active = well fitted curve in the direction sought with a large enough effect in the repeat runs; inconclusive = weak or mixed curves; inactive = flat fitted curve, though single readings scatter.

{"compound": "C=C[Si](OC(C)=O)(OC(C)=O)OC(C)=O", "fluorescence, % of fluorescent control": "inactive"}
{"compound": "CCOC(=O)CCC(=O)OCC", "fluorescence, % of fluorescent control": "inactive"}
{"compound": "Cc1ccc(C(=O)Nc2ccc(S(=O)(=O)O)c3cc(S(=O)(=O)O)cc(S(=O)(=O)O)c23)cc1NC(=O)c1cccc(NC(=O)Nc2cccc(C(=O)Nc3cc(C(=O)Nc4ccc(S(=O)(=O)O)c5cc(S(=O)(=O)O)cc(S(=O)(=O)O)c45)ccc3C)c2)c1", "fluorescence, % of fluorescent control": "inactive"}
{"compound": "CN(C)CCN(C)CCN(C)C", "fluorescence, % of fluorescent control": "inactive"}
{"compound": "C=C(C)C(=O)OCC1CCCO1 (stereo not given)", "fluorescence, % of fluorescent control": "inactive"}

====

# test summary: qHTS RealTime-Glo MT Cell Viability Assay in HepG2 cells - 24 hour (AID 1224867); note: % is set by controls: 0 for no effect and ±100 for the full control effect; nearly all actives have a fitted effect of over 50% in size
# assay context: RealTime-Glo luminescence; series mostly up to 76.8 µM
# Source text: U.S. Tox21 Program National Center for Advancing Translational Sciences [NCATS] NIH Chemical Genomics Center [NCGC] U.S. Environmental Protection Agency [EPA] National Institutes of Environmental Health Sciences [NIEHS] National Toxicology Program [NTP] U.S. Food and Drug Administration [FDA] Tox21 Assay Overview: Measure of cell viability is critical in the cell-base assay. Analysis of cell viability is necessary for the characterization of cell responses to cytotoxic drugs and environmental stress. […]
Records with an inconclusive call do not appear. Calls of active or inactive are those of the source. Calls follow the shape of the dose curve; as a rule, active = well fitted cell-killing curve with a large enough effect in the repeat runs; inconclusive = weak or mixed curves; inactive = flat fitted curve, though single readings scatter.
reported endpoint: activity change, negative = cytotoxicity

{"molecule": "NC(=O)Cc1cccc2ccccc12", "reported endpoint": "activity change, negative = cytotoxicity", "reading": "inactive"}
{"molecule": "Cc1cc(C)c(N=Nc2c(O)c(S(=O)(=O)O)cc3cc(S(=O)(=O)O)ccc23)cc1C", "reported endpoint": "activity change, negative = cytotoxicity", "reading": "-1.15% [at 6.97 µM] (inactive)"}
{"molecule": "Cc1ncc(COP(=O)(O)O)c(C=O)c1O", "reported endpoint": "activity change, negative = cytotoxicity", "reading": "inactive"}
{"molecule": "COc1ccnc(CS(=O)c2nc3cc(OC(F)F)ccc3[nH]2)c1OC (configuration not stated)", "reported endpoint": "activity change, negative = cytotoxicity", "reading": "inactive"}
{"molecule": "COc1cc2c(cc1OC)-c1cc3ccc(OC)c(OC)c3c[n+]1CC2", "reported endpoint": "activity change, negative = cytotoxicity", "reading": "inactive"}
{"molecule": "CCCCCC(=O)OCCc1ccccc1", "reported endpoint": "activity change, negative = cytotoxicity", "reading": "inactive"}
{"molecule": "CN1CCN(c2cc3c(nn2)Oc2ccccc2N3C)CC1", "reported endpoint": "activity change, negative = cytotoxicity", "reading": "-0.547% [at 15.8 µM] (inactive)"}
{"molecule": "O=C1CCCCCCCCCCCCCCO1", "reported endpoint": "activity change, negative = cytotoxicity", "reading": "inactive"}
{"molecule": "CCCCCCC#CC(=O)OC", "reported endpoint": "activity change, negative = cytotoxicity", "reading": "inactive"}
{"molecule": "CN(C)CCN(C)CCN(C)C", "reported endpoint": "activity change, negative = cytotoxicity", "reading": "inactive"}
{"molecule": "CCCCc1ccc2c(n1)[C@@H](c1ccc(OC)cc1C[C@H](C)C(=O)O)[C@H](C(=O)O)[C@H]2c1ccc2c(c1)OCO2", "reported endpoint": "activity change, negative = cytotoxicity", "reading": "inactive"}
{"molecule": "C=C(C)C(=O)OCC(O)CO (configuration not stated)", "reported endpoint": "activity change, negative = cytotoxicity", "reading": "inactive"}

====

# test summary: qHTS assay to identify small molecule agonists of the endoplasmic reticulum stress response signaling pathway - cell viability counter screen (AID 1159517);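 note: HeLa cells carrying an ER stress response element beta-lactamase reporter; % is set by controls: 0 for no effect and ±100 for the full control effect; nearly all actives have a fitted effect of over 50% in size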
# assay context: ESRE-bla HeLa viability, CellTiter-Glo luminescence, 5 h; series mostly up to 61 µM
Results filed as inconclusive are left out. The source made the active and inactive calls. Calls follow the shape of the full dose curve.

{"smiles string": "O=C(CO)[C@@H](O)[C@H](O)[C@H](O)CO", "activity change, negative = cytotoxicity": "inactive"}
{"smiles string": "CC1=C(C/C=C(\\C)CCC[C@H](C)CCC[C@H](C)CCCC(C)C)C(=O)c2ccccc2C1=O", "activity change, negative = cytotoxicity": "inactive"}
{"smiles string": "C1CCC2=NCCCN2CC1", "activity change, negative = cytotoxicity": "inactive"}
{"smiles string": "NC(=O)N[C@@H](CCC(=O)O)C(=O)O", "activity change, negative = cytotoxicity": "inactive"}

====

# test summary: qHTS RealTime-Glo MT Cell Viability Assay in HepG2 cells - 8 hour (AID 1224873); note: % is set by controls: 0 for no effect and ±100 for the full control effect; nearly all actives have a fitted effect of over 55% in size
# assay context: RealTime-Glo luminescence; series mostly up to 76.8 µM
# Excerpt: National Center for Advancing Translational Sciences [NCATS] NIH Chemical Genomics Center [NCGC] U.S. Environmental Protection Agency [EPA] National Institutes of Environmental Health Sciences [NIEHS] National Toxicology Program [NTP] U.S. Food and Drug Administration [FDA] Measure of cell viability is critical in the cell-base assay. Analysis of cell viability is necessary for the characterization of cell responses to cytotoxic drugs and environmental stress. […]
Results filed as inconclusive are left out. Activity calls are given as the source filed them. Calls come from the whole dose curve; as a rule, active = well fitted cell-killing curve with a large enough effect in the repeat runs; inconclusive = weak or mixed curves; inactive = flat fitted curve, though single readings scatter.

{"smiles string": "Cc1ccnc(NS(=O)(=O)c2ccc(N)cc2)n1", "viability change, negative = cytotoxic": "inactive"}
{"smiles string": "CC[N+](C)(CC)CCOC(=O)C1c2ccccc2Oc2ccccc21", "viability change, negative = cytotoxic": "inactive"}
{"smiles string": "Nc1c2c(nc3c1CCC3)CCCC2", "viability change, negative = cytotoxic": "inactive"}
{"smiles string": "CCCCCC(=O)OCCc1ccccc1", "viability change, negative = cytotoxic": "inactive"}
{"smiles string": "CC(=O)c1ccccc1[N+](=O)[O-]", "viability change, negative = cytotoxic": "inactive"}
{"smiles string": "CO/N=C(\\C(=O)N[C@@H]1C(=O)N2C(C(=O)O)=C(CSc3nc(=O)c(O)nn3C)CS[C@H]12)c1csc(N)n1", "viability change, negative = cytotoxic": "inactive"}

====

# test summary: qHTS assay to identify small molecule antagonists of the TGF-beta/Smad signaling pathway - cell viability counter screen (AID 1346824); note: % is set by controls: 0 for no effect and ±100 for the full control effect; nearly all actives have a fitted effect of over 50% in size
# assay context: SBE-bla HEK293T viability, CellTiter-Glo luminescence; series mostly up to 76.8 µM
Inconclusive results are not listed. Calls of active or inactive are those of the source. Calls come from the whole dose curve; as a rule, active = well fitted cell-killing curve with a large enough effect in the repeat runs; inconclusive = weak or mixed curves; inactive = flat fitted curve, though single readings scatter.

{"compound": "CCC(=O)OCc1ccccc1", "viability change, negative = cytotoxic": "inactive"}
{"compound": "CCCCCCCCCCOc1cc2c(=O)c(C(=O)OCC)c[nH]c2cc1OCC", "viability change, negative = cytotoxic": "0.981% [at 6.97 µM] (inactive)"}
{"compound": "CCOC(=O)OC(C)OC1=C(C(=O)Nc2ccccn2)N(C)S(=O)(=O)c2ccccc21 (configuration not stated)", "viability change, negative = cytotoxic": "inactive"}
{"compound": "CCC(C)(CN(C)C)OC(=O)c1ccccc1 (configuration not stated)", "viability change, negative = cytotoxic": "inactive"}
{"compound": "COC(=O)C1=C(C)NC(C)=C(C(=O)OC(C)C)C1c1cccc2nonc12 (configuration not stated)", "viability change, negative = cytotoxic": "inactive"}
{"compound": "Cc1coc2ccccc2c1=O", "viability change, negative = cytotoxic": "inactive"}
{"compound": "FB(F)F", "viability change, negative = cytotoxic": "inactive"}

====

# test summary: qHTS assay for small molecule disruptors of the mitochondrial membrane potential - cell viability (AID 720634);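 note: human HepG2 liver cancer cells; % is set by controls: 0 for no effect and ±100 for the full control effect; nearly all actives have a fitted effect of over 20% in size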
# assay context: HepG2 viability, ATP luminescence (CellTiter-Glo), 1 h; series mostly up to 83.2 µM
Records with an inconclusive call do not appear. Calls of active or inactive are those of the source. The call rests on the fitted dose curve.

{"compound": "CO/N=C(\\C(=O)N[C@@H]1C(=O)N2C(C(=O)O)=C(CSc3nc(=O)c(O)nn3C)CS[C@H]12)c1csc(N)n1", "outcome": "inactive"}
{"compound": "COc1cc(C(=O)OC(COCCC(C)C)CN2CCOCC2)cc(OC)c1OC (stereo not drawn)", "outcome": "inactive"}
{"compound": "CCCCCCC#CC(=O)OC", "outcome": "inactive"}
{"compound": "C=CC(=O)OCCCl", "outcome": "inactive"}
{"compound": "O=C(O)CCSCCC(=O)O", "outcome": "inactive"}
{"compound": "CCNS(=O)(=O)c1ccc(C)cc1", "outcome": "inactive"}
{"compound": "NO", "outcome": "inactive"}
{"compound": "CCCCS(=O)(=O)N[C@@H](Cc1ccc(OCCCCC2CCNCC2)cc1)C(=O)O", "outcome": "inactive"}
{"compound": "CCOC(=O)c1cnc2c(cnn2CC)c1NN=C(C)C", "outcome": "inactive"}
{"compound": "CO[C@@]1(NC(=O)C(C(=O)O)c2ccc(O)cc2)C(=O)N2C(C(=O)O)=C(CSc3nnnn3C)CO[C@@H]21 (stereo partly drawn)", "outcome": "inactive"}
{"compound": "CCCCCC(C)N (stereo not drawn)", "outcome": "inactive"}
{"compound": "CC(C)CC(C)(N)C#N (stereo not drawn)", "outcome": "inactive"}
{"compound": "CC(CO)(CO)[N+](=O)[O-]", "outcome": "inactive"}
{"compound": "O=C(O)CC(C(=O)O)S(=O)(=O)O (stereo not drawn)", "outcome": "inactive"}
{"compound": "C=CCCCCCCCCC(=O)OCC", "outcome": "inactive"}
{"compound": "C1CCC2=NCCCN2CC1", "outcome": "inactive"}
{"compound": "CC(C)COC(=O)c1ccc(N)cc1", "outcome": "inactive"}
{"compound": "O=Cc1cccc(Br)c1", "outcome": "inactive"}
{"compound": "CCCCOC(=O)CCC(C)=O", "outcome": "inactive"}
{"compound": "Cc1c(N)c(=O)n(-c2ccccc2)n1C", "outcome": "inactive"}
{"compound": "C[C@@H]1CCC[C@H](C)N1", "outcome": "inactive"}
{"compound": "c1ccc(CCc2ccccc2)cc1", "outcome": "inactive"}
{"compound": "CN(C)[C@@H]1C(=O)C(C(=O)NCN2CCCC2)=C(O)[C@@]2(O)C(=O)C3=C(O)c4c(O)cccc4[C@@](C)(O)C3C[C@@H]12 (stereo partly drawn)", "outcome": "inactive"}
{"compound": "C=C(C)C(=O)OCC1CCCO1 (stereo not drawn)", "outcome": "inactive"}
{"compound": "Cc1cccc(C)c1NC(=O)CC12CCCN1CCC2", "outcome": "inactive"}
{"compound": "C=CCOCC(O)CO (stereo not drawn)", "outcome": "inactive"}
{"compound": "CCCCOCCOC(=O)COc1cc(Cl)c(Cl)cc1Cl", "outcome": "inactive"}
{"compound": "CC1=CC(=O)[C@H]2C[C@@H]1C2(C)C", "outcome": "inactive"}
{"compound": "CC(C)NNC(=O)c1ccncc1", "outcome": "inactive"}
{"compound": "CC(C)(N)C#N", "outcome": "inactive"}
{"compound": "CC(COc1ccccc1)NN (stereo not drawn)", "outcome": "inactive"}
{"compound": "CCCCCCCC1CCCC1=O (stereo not drawn)", "outcome": "inactive"}
{"compound": "Clc1cc(Cl)c(Cl)nc1Cl", "outcome": "inactive"}
{"compound": "O=C1NC(=O)C2CC=CCC12 (stereo not drawn)", "outcome": "inactive"}
{"compound": "C=COC(=O)C(C)(CC)CCC(C)C (stereo not drawn)", "outcome": "inactive"}
{"compound": "NC(=O)N[C@@H](CCC(=O)O)C(=O)O", "outcome": "inactive"}
{"compound": "O=C(c1ccccc1O)c1ccccc1O", "outcome": "inactive"}
{"compound": "CCO[Si](OCC)(OCC)c1ccccc1", "outcome": "inactive"}
{"compound": "[O-][n+]1cccc(CO)c1", "outcome": "inactive"}
{"compound": "O=C(O)CNC(=O)c1ccccc1", "outcome": "inactive"}
{"compound": "C[N+]1(C)CCCC(OC(=O)C(O)(c2ccccc2)c2ccccc2)C1 (stereo not drawn)", "outcome": "inactive"}
{"compound": "CC(C)(C#N)Nc1nc(Cl)nc(NC2CC2)n1", "outcome": "inactive"}
{"compound": "CCCCCC(=O)OCCc1ccccc1", "outcome": "inactive"}
{"compound": "CC(=O)OCC(=O)[C@@]1(O)[C@H](C)C[C@H]2[C@@H]3CCC4=CC(=O)C=C[C@]4(C)[C@@]3(F)[C@@H](O)C[C@@]21C", "outcome": "inactive"}
{"compound": "CCCc1ncc(C[n+]2ccccc2C)c(N)n1", "outcome": "inactive"}
{"compound": "CCN(C=O)CC", "outcome": "inactive"}
{"compound": "CC(C)C(=O)OC(=O)C(C)C", "outcome": "inactive"}
{"compound": "CC(N)C12CC3CC(CC(C3)C1)C2 (stereo not drawn)", "outcome": "inactive"}
{"compound": "c1ccc2sc(SN3CCOCC3)nc2c1", "outcome": "inactive"}
{"compound": "C[N+]12CCC(CC1)C(OC(=O)C(O)(c1ccccc1)c1ccccc1)C2 (stereo not drawn)", "outcome": "inactive"}
{"compound": "C[C@H]1C[C@H]2[C@@H]3CCC4=CC(=O)C=C[C@]4(C)[C@H]3C(=O)C[C@]2(C)[C@@]1(O)C(=O)CO", "outcome": "inactive"}
{"compound": "C[N+]1(CC2COC(c3ccccc3)(c3ccccc3)O2)CCCCC1 (stereo not drawn)", "outcome": "inactive"}
{"compound": "CC[C@H]1OC(=O)[C@H](C)[C@@H](O[C@H]2C[C@@](C)(OC)[C@@H](O)[C@H](C)O2)[C@H](C)[C@@H](O[C@@H]2O[C@H](C)C[C@H](N(C)C)[C@H]2O)[C@](C)(OC)C[C@@H](C)C(=O)[C@H](C)[C@@H](O)[C@]1(C)O", "outcome": "inactive"}
